# inhibition listing for each entry below
biological target: Endonuclease III-like protein 1 (Homo sapiens); conditions: Compound Concentration 10.0 uM, Hit No;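 note: enzyme assay tracking NTHL1 cutting and release of a quenched double-stranded DNA oligo substrate, read as fluorescence at 594 nm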
Description: Inhibition of NTHL1 by quantifying inhibition of NTHL1-mediated cleavage and dissociation of quenched duplex DNA oligonucleotides, measured as fluorescence at 594 nm.
State just the number; it will be interpreted in %.

>>> recordedresult("CCCCCCCN(CCc1ccc(SC(C)(C)C(=O)O)cc1)C(=O)Nc1ccc(F)cc1F")
5.29

Input: Which inhibition value belongs to COC(=O)[C@H](CCCN=C(N)N)NC(=O)CCCc1c(-c2ccccc2)[nH]c2c(F)cc(F)cc12 ?
Output: -5.41

====

biological target: G/T mismatch-specific thymine DNA glycosylase (Homo sapiens); settings: Compound Concentration 10.0 uM, Hit No;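 note: human TDG cleavage of quenched duplex DNA oligonucleotides coupled to APE1, strand release read as fluorescence at 594 nm, inhibition of TDG activity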
Description: Inhibition of TDG by quantifying inhibition of TDG-mediated cleavage and dissociation of quenched duplex DNA oligonucleotides, measured as fluorescence at 594 nm. To generate a functional strand incision and increase turn-over this assay is coupled to APE1.
# inhibition listing for each entry below
State just the number; it will be interpreted in %.

Before answering, review these 5 worked examples.
>>> recordedresult("CCn1cnc2c(-c3ccc(F)c(-c4ccc(S(=O)(=O)CC)cc4OC)c3)cnnc21")
22.3
>>> recordedresult("COc1ccccc1-c1cc(Nc2cccc(CS(N)(=O)=O)c2)ncn1")
35.8
>>> recordedresult("CCN(c1ccccc1)c1cc(NC)[n+](C)c(C)n1")
7.48
>>> recordedresult("O=C(O)CCc1ccc(NCc2cccc(Oc3ccccc3)c2)cc1")
20
>>> recordedresult("COc1ccc(/C=C/CCCCOc2ccc(C(=O)c3cccc(C(=O)O)c3)cc2CCC(=O)O)cc1")
43.2

Input: Which inhibition value belongs to C=CC(=O)Nc1ccc2[nH]c(=O)n(C3CCN(Cc4ccc(-c5ccc6c(c5)NC(=O)CO6)cc4)CC3)c2c1 ?
Output: 30.3

Input: Which inhibition value belongs to Cc1nn(C)c2nc(NNC(=O)Nc3cc(Cl)nc(Cl)c3)cc(C(C)C)c12 ?
Output: 16.6

Input: Which inhibition value belongs to CN1C2CCCC1CC(Nc1ccccc1Br)C2 (stereo unspecified) ?
Output: -8.71

Input: Which inhibition value belongs to Cc1ccc2c(c1CCC(=O)O)CC[C@@H](NS(=O)(=O)c1ccc(Cl)cc1)C2 ?
Output: 18

Input: Which inhibition value belongs to CCOC(=O)c1ccc(C#Cc2ccc3c(c2)C(C)(C)CCS3)nc1 ?
Output: 98.1

Input: Which inhibition value belongs to CC(C)NC(=O)c1ccc(C#Cc2ccncc2)cn1 ?
Output: 8.93
